This collection of values is drawn from ChEMBL document CHEMBL1201862.

# maps each entry to its GI50
# Test system: DLD-1
# Procedure text: NCI tumour cell line growth inhibition, 48 h
The source made the active and inactive calls. No stated cut-off is given here; in the data, active = GI50 up to about 1.1 µM and inactive = higher.
Outcome measure: GI50

[[record]]
compound = "CC1(C)S[C@H](c2ccccc2C(=O)O)N[C@@H]1CC(=O)O"
meas_value = "> 100 µM (inactive)"

[[record]]
compound = "COc1cc2c(cc1OC)C(SC)C(=O)N(Cc1cccc(OC)c1OC)CC2 (stereo not given)"
meas_value = "2.01 µM (inactive)"

[[record]]
compound = "CCC(=C(C#N)C#N)c1cc(OC)c(OC)c(OC)c1"
meas_value = "> 100 µM (inactive)"

[[record]]
compound = "CCN(CC)CCCn1cnc2ncccc2c1=O"
meas_value = "> 100 µM (inactive)"

[[record]]
compound = "Oc1cc(Cl)ncn1"
meas_value = "> 100 µM (inactive)"

[[record]]
compound = "O=C(c1ccccc1)c1nnn(Cc2ccccc2Cn2nnc(C(=O)c3ccccc3)c2C(=O)c2ccccc2)c1C(=O)c1ccccc1"
meas_value = "> 100 µM (inactive)"

[[record]]
compound = "CC1=CC(=O)N2[C@H](OC[C@@H]2C(C)C)O1"
meas_value = "> 100 µM (inactive)"

[[record]]
compound = "O=[N+]([O-])c1cccc(C2N3CCCCC3[C@@H]3c4[nH]c5ccccc5c4CCN23)c1 (stereo not given in full)"
meas_value = "12.3 µM (inactive)"

[[record]]
compound = "CC1=NN(C(=O)CC(=O)Nc2cccc(Cl)c2)C(=O)C1/N=N/c1ccc(S(N)(=O)=O)cc1 (stereo not given)"
meas_value = "> 100 µM (inactive)"

[[record]]
compound = "CCN/C(=N\\Nc1ccc([N+](=O)[O-])cc1)P(=O)(OC(C)C)OC(C)C"
meas_value = "> 100 µM (inactive)"


====

# maps each entry to its GI50
# System: IGROV-1
# Procedure text: NCI tumour cell line growth inhibition, 48 h
Active and inactive are the calls of the source. Rule as the data show it: active = GI50 up to about 1.1 µM and inactive = higher. Square brackets hold non-standard residues; d marks the D form. Peptide text beside a SMILES is read from it. * marks the point of attachment. X26 = COC1=CC(=O)N(C(=O)[C@@H](O*)C(C)C)[C@H]1Cc1ccccc1; NMeL = CN[C@@H](CC(C)C)C(=O)O; Hexanoyl = CCCCCC(=O)*
Outcome measure: GI50

[[record]]
molecule = "C=C(C)C1CC/C(C)=C/CCC2(C)OC2CC/C(CO)=C\\C1O (stereo not drawn)"
meas_value = "68.1 µM (inactive)"

[[record]]
molecule = "CCCCCC(=O)N[C@H](C(=O)N[C@H](C(=O)N(C)[C@@H](CC(C)C)C(=O)N1CCC[C@H]1C(=O)N1CCC[C@H]1C(=O)O[C@H](C(=O)N1C(=O)C=C(OC)[C@@H]1Cc1ccccc1)C(C)C)C(C)C)C(C)C (Hexanoyl-VV[NMeL]PP-X26)"
meas_value = "> 44.2 µM (inactive)"

[[record]]
molecule = "CC1CN1c1c(C(=O)/C=C/c2ccc(F)cc2)c(-c2ccccc2)nn(C)c1=O (stereo not drawn)"
meas_value = "19.8 µM (inactive)"

[[record]]
molecule = "CC(=O)Nc1ncc2c(n1)-c1ccccc1OC2c1ccccc1 (stereo not drawn)"
meas_value = "46.5 µM (inactive)"

[[record]]
molecule = "CC[C@@H]1C[C@@H](O)[C@@H]2[C@H](O)[C@H](O)CN2C1"
meas_value = "> 100 µM (inactive)"

[[record]]
molecule = "COc1cc(/C=C/C(=O)c2cccc3ccccc23)cc(OC)c1OC"
meas_value = "15.4 µM (inactive)"

[[record]]
molecule = "O=C1C(Cl)=CC2(C=C1Cl)CCNC1=C2C(=O)c2nc[nH]c2C1=O"
meas_value = "47.1 µM (inactive)"

[[record]]
molecule = "COc1ccc(NC(=O)Oc2cc(C)c3ccc(=O)cc-3o2)c(OC)c1.COc1ccc(NC(=O)Oc2ccc3c(C)cc(=O)oc3c2)c(OC)c1"
meas_value = "> 100 µM (inactive)"


====

# Test system: MDA-N
# Procedure text: NCI tumour cell line growth inhibition, 48 h
Activity calls are given as the source filed them. No stated cut-off is given here; in the data, active = GI50 up to about 1.1 µM and inactive = higher.
Possible outcomes: Yes (active), No (inactive)

[[record]]
molecule = "CCCCCCCc1c(Cl)nc(Cl)nc1Cl"
target_under_test = "MDA-N"
classification = "No"

[[record]]
molecule = "COC(=O)CCCCC/C(=C\\C(=O)C(Cl)(Cl)Cl)OC"
target_under_test = "MDA-N"
classification = "No"

[[record]]
molecule = "Cc1n[nH]c(=O)n1C1CCCC1"
target_under_test = "MDA-N"
classification = "No"

[[record]]
molecule = "C[n+]1ccc(/C2=C3\\C=CC(=N3)/C(c3cc[n+](C)cc3)=c3/cc/c([nH]3)=C(\\c3cc[n+](C)cc3)C3=N/C(=C(/c4cc[n+](C)cc4)C4C=CC2N4)C=C3)cc1"
target_under_test = "MDA-N"
classification = "No"

[[record]]
molecule = "OCCCNCc1ccccn1"
target_under_test = "MDA-N"
classification = "No"

[[record]]
molecule = "Cn1/c(=N\\S(=O)(=O)c2ccccc2)[nH]c2ccccc21"
target_under_test = "MDA-N"
classification = "No"

[[record]]
molecule = "O=c1c(Nc2ccccc2)cn(CCOc2ccccc2)c(=O)n1CCOc1ccccc1"
target_under_test = "MDA-N"
classification = "No"

[[record]]
molecule = "N=C(N)SCc1cc(Cl)cc(Cl)c1O"
target_under_test = "MDA-N"
classification = "No"

[[record]]
molecule = "O=C1CSC(c2cccc([N+](=O)[O-])c2)N1c1ccc(-n2c(-c3ccccc3)nc3ccccc3c2=O)cc1 (stereo unspecified)"
target_under_test = "MDA-N"
classification = "No"

[[record]]
molecule = "COc1cccc(C2CC(C)(N3CCCC3)Oc3cc4c(cc32)OCO4)c1O (stereo unspecified)"
target_under_test = "MDA-N"
classification = "No"

[[record]]
molecule = "C=C1C(=O)O[C@@H]2[C@@H]3O[C@@H](C[C@@H]13)[C@](C)(O)CC/C=C(\\C)CCC[C@@H]2C"
target_under_test = "MDA-N"
classification = "No"

[[record]]
molecule = "CC(=O)C1C(=O)C(=O)N(c2cccc([N+](=O)[O-])c2)C1=O (stereo unspecified)"
target_under_test = "MDA-N"
classification = "No"

[[record]]
molecule = "O=C1C(Cl)=CC2(C=C1Cl)CCNC1=C2C(=O)c2nc[nH]c2C1=O"
target_under_test = "MDA-N"
classification = "No"

[[record]]
molecule = "O=C(O)c1ccc(OCc2nc3cc(C(F)(F)F)ccc3nc2-c2ccccc2)cc1"
target_under_test = "MDA-N"
classification = "No"

[[record]]
molecule = "N#CC[N+]1(Cc2ccccn2)CCCC1.O=S(=O)([O-])c1ccccc1"
target_under_test = "MDA-N"
classification = "No"

[[record]]
molecule = "CCCCC1=C(C(=O)N2CCOCC2)C2(OCCO2)C1Cl (stereo unspecified)"
target_under_test = "MDA-N"
classification = "No"

[[record]]
molecule = "CC(C)(CO)CNc1nc(N)nc(Cl)c1C=O"
target_under_test = "MDA-N"
classification = "No"

[[record]]
molecule = "CCCCCCCCCCCCCCCCOCC(Cl)COP(=O)(O)OP(=O)(O)OCC1OC(n2cc(C)c(=O)[nH]c2=O)CC1O (stereo unspecified)"
target_under_test = "MDA-N"
classification = "No"

[[record]]
molecule = "CC(=O)Nc1ncc2c(n1)-c1ccccc1OC2c1ccccc1 (stereo unspecified)"
target_under_test = "MDA-N"
classification = "No"

[[record]]
molecule = "O=C1c2ccccc2-c2oc(=O)c3ccccc3c21"
target_under_test = "MDA-N"
classification = "No"

[[record]]
molecule = "CSC(SC)=C(C(=O)O)P(=O)(O)O"
target_under_test = "MDA-N"
classification = "No"

[[record]]
molecule = "O=c1[nH]c(=O)n(CCOCP(=O)(O)O)nc1Br"
target_under_test = "MDA-N"
classification = "No"

[[record]]
molecule = "Nc1nc(Cl)c(N)c(NCC2(CO)CC(O)C2)n1 (stereo unspecified)"
target_under_test = "MDA-N"
classification = "No"

[[record]]
molecule = "O=C1Nc2nnc(S)n2NC12c1ccccc1-c1ccccc12"
target_under_test = "MDA-N"
classification = "No"

[[record]]
molecule = "COc1cc(/C=C/c2ccc(S(N)(=O)=O)cc2)cc(OC)c1"
target_under_test = "MDA-N"
classification = "No"

[[record]]
molecule = "CCOP(=O)(OCC)C(Nc1cccc(F)c1)c1ccc(N(C)C)cc1 (stereo unspecified)"
target_under_test = "MDA-N"
classification = "No"

[[record]]
molecule = "COc1nc(=O)n(C2CC(N=[N+]=[N-])C(CO)O2)cc1C (stereo unspecified)"
target_under_test = "MDA-N"
classification = "No"

[[record]]
molecule = "Cc1ccc(S(=O)(=O)NCCN(CCNS(=O)(=O)c2ccc(C)cc2)S(=O)(=O)c2ccc(C)cc2)cc1"
target_under_test = "MDA-N"
classification = "No"

[[record]]
molecule = "C=CCOc1cccc(C2(O)c3ccccc3C3=NCCCN32)c1 (stereo unspecified)"
target_under_test = "MDA-N"
classification = "No"

[[record]]
molecule = "CN(C)c1ccc(C2CC(c3ccc4ccccc4c3O)=NN2c2ccc([N+](=O)[O-])cc2[N+](=O)[O-])cc1 (stereo unspecified)"
target_under_test = "MDA-N"
classification = "No"

[[record]]
molecule = "C=C1C(=O)OC2C3C(=C)[C@@H](OC(C)=O)CC3C(C)=CC(OC(=O)C(C)(OC(C)=O)C(C)OC(C)=O)[C@@H]12 (stereo partly specified)"
target_under_test = "MDA-N"
classification = "No"

[[record]]
molecule = "CC(=O)OCC1OC(N2C(=O)CC(N)=Nc3ccccc32)C(OC(C)=O)C(OC(C)=O)C1OC(C)=O (stereo unspecified)"
target_under_test = "MDA-N"
classification = "No"

[[record]]
molecule = "CCN(CC)CCCC(C)Nc1ccnc(/C=C/c2ccc(Cl)cc2)c1 (stereo unspecified)"
target_under_test = "MDA-N"
classification = "No"

[[record]]
molecule = "C=CC(=O)N1C/C(=C\\c2ccccc2)C(=O)/C(=C/c2ccccc2)C1"
target_under_test = "MDA-N"
classification = "Yes"

[[record]]
molecule = "Clc1ccc(C2=CC(c3ccccc3)N3C(=N[C@H]4CCCC[C@@H]43)N2)cc1 (stereo partly specified)"
target_under_test = "MDA-N"
classification = "No"

[[record]]
molecule = "C[C@]12CC[C@H](O)C[C@@H]1CC[C@@H]1[C@@H]2CC[C@]2(C)[C@@H](C3=CC(=O)OC3)CC[C@]12O"
target_under_test = "MDA-N"
classification = "No"

[[record]]
molecule = "Cc1cc(-c2cccc3ccccc23)c(C#N)c(=S)n1C1OC(CO)C(O)C(O)C1O (stereo unspecified)"
target_under_test = "MDA-N"
classification = "No"

[[record]]
molecule = "Cc1c(N2C(=O)/C(=C/C=C/c3ccccc3)N=C2c2ccccc2)c(=O)n(-c2ccccc2)n1C"
target_under_test = "MDA-N"
classification = "No"

[[record]]
molecule = "Cc1cc(C)n(C(=O)CSc2nc3ccc(I)cc3c(=O)n2Cc2ccccc2)n1"
target_under_test = "MDA-N"
classification = "No"

[[record]]
molecule = "N#CC(C#N)=Cc1ccc2c(c1)OC(Cl)O2 (stereo unspecified)"
target_under_test = "MDA-N"
classification = "No"

[[record]]
molecule = "CC(=O)c1c(SCCN2CCOCC2)n(-c2ccccc2)c(=S)n(-c2ccccc2)c1=O"
target_under_test = "MDA-N"
classification = "No"

